Assay: protein stability index of a GFP-peptide fusion (GPS, HEK-293T) (PSI 1-6); higher = more stable;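 also: 24-mer peptide tiles fused after GFP, lentivirally expressed, FACS-sorted into six equal bins by GFP/DsRed ratio, decoded by Illumina sequencing, PSI is the read-weighted mean bin number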
Details: treatment: DMSO; c terminus: a fixed tail appended
Please go through the items and note down their protein stability index.
Reply: number alone, nothing else.

Challenge: Given the sequence KTPEEAYRALLSGSNPPYLPFRDA [CDC14A] , what is its reported protein stability index?
Response given: 3.27

Challenge: Now the sequence PEHGDRVAELFCRRCRRCVCALCP [TRIM14]
Response given: 3.29

Challenge: Then this sequence: SLVYYGLTLSAGDLGGSIYANLAL [SLC22A15]
Response given: 3.02

Challenge: How about NESHSIKAILKNISVLAFSVCFIF [SLC29A1] ?
Response given: 2.79

Challenge: Another: SKYCYGPQGSRSPYIPPHAALCLE [FKBP8]
Response given: 2.46

Challenge: Ok, now IKIVLINSFGAILQGSLFGLAGLL [SLC29A1]
Response given: 2.72

Challenge: Subsequent entry: CFKAKLHRKRGSQPPDMASALTDR [RSPH3]
Response given: 3.66

Challenge: Can you check TGGPDACLRCWDQRTIMKPLEYQF [TLE6] next?
Response given: 2.29

Challenge: Cool, now EKIHEMVKKNSAKSMGLKKKAFVW [ACSBG2]
Response given: 2.49

Challenge: Repeat for the following sequence: SGSQRHMVGQKDSVILSVKFSPFG [TLE6]
Response given: 2.2

Challenge: # iterate: MITVPIGLYFTTKSYIFEGALGMS [VMA21]
Response given: 2.49

Challenge: Consider next the sequence YRSPEPDPYLSYRWKRRRSYSREH [CLK3] in the same way.
Response given: 3.55

Challenge: // repeat for VDWRRVSRLQEDPEGTENPLGVDE [SLA] and report
Response given: 4.46

Challenge: Also check SKIGFGILLSKEPDGVWAYNRGEH [SMAD6]
Response given: 2.43

Challenge: Quick one: CPTFRVSIARLEMGPDEYEEMEEE [FBXO3]
Response given: 4.7

Challenge: Moving on to CMYRHALPPGFVLKKDKKKEEKED [ZC3H15]
Response given: 4.58

Challenge: Thanks! And LCTPEGWFSCQGPFDMDSCLSRHS [DFFB] ?
Response given: 2.52

Challenge: Follow-up item: ECPSMGTNEAACLLDNPLCADVLF [RHOBTB1]
Response given: 3.42

Challenge: Also, GMASFRFPETTFISVTAYQNPQIT [TBX6] please.
Response given: 2.34

Challenge: Thanks! And LYGALNPQYEFKEAAGSFTSSLAQ [IRX6] ?
Response given: 2.64

Challenge: Next: LVVFTASMEIYGSAVADKLDNSRS [CTDNEP1]
Response given: 2.92

Challenge: Then TSHSLPESSVPSTVGCSSQHTPDQ [PLEKHN1] ?
Response given: 5.36

Challenge: And the next one, SARFWIPGEPNNAGNNEHCGNIKA [CD207] ?
Response given: 4.03

Challenge: Further, for WALLCLGLLLPGGGAAWSIGAAPF [EMID1] ?
Response given: 3.54

Challenge: Proceed to KQTIGNSCKACGYRGMLDTHHKLC [EIF5]
Response given: 2.8

Challenge: Would you kindly repeat that for LFAELGYFTDTDELQLEAANETYE [ATF6] ?
Response given: 4.04

Challenge: Item: TNPDLYPVRRIDGLTDVSQIITVT [IQUB]
Response given: 2.86

Challenge: Do the same for ALGDAFADLSQKSPELQEEFGYNA [ARFIP2] please
Response given: 4.6

Challenge: Also check EPEKIYAMPDPTVPDSDIKALTTL [ESRRG]
Response given: 4.46

Challenge: Can you check CRVFWWLGDRDRSRAALVCRKWNQ [FBXO39] next?
Response given: 2.46

Challenge: What do you have for TRKLSPGKKRCKDIKRLLVNFMYL [SMG5] ?
Response given: 2.53

Challenge: Consider next the sequence AEERRRQNLQEEKERKLECLPPEP [FAF2] in the same way.
Response given: 5.71

Challenge: Queued: PTSPVQGTTPQISPSTLIGSLRTL [HDAC6]
Response given: 3.77

Challenge: Try the sequence PLWPGKSDVDQLYLIIRTLGKLIP [CDKL4]
Response given: 3.04

Challenge: Next sequence up: ESKEPIEEEPTGAGLNKDKETEER [SDE2]
Response given: 5.57

Challenge: Next record, please: TLFQTESPQSGSILTEETEVKGTL [PBXIP1]
Response given: 4.92

Challenge: Also EIEQYRLQREKEFKAKEAAALGSR [ATP6V1G1] , if possible.
Response given: 4.15

Challenge: How about PTLAKFSPYLGQMINLRRLLLSHI [PRAME] ?
Response given: 2.33

Challenge: And ASVAMICAIASGSELSESAFGYFI [SLC29A1] ?
Response given: 2.94

Challenge: Then LLAKMFGAKDSELASQNKPLWQCY [PDS5B] ?
Response given: 2.57

Challenge: Continue with RAYFMSDTREEKRFLGEGHHRVQE [CHGB]
Response given: 3.87

Challenge: Subsequent entry: IEAKEACDWLRATGFPQYAQLYED [DLC1]
Response given: 3.21

Challenge: Try EKEKKNRKGKDKENGSVSSSETPP [EIF5] next.
Response given: 5.58

Challenge: Also need LWFANAHLLSWFSPTIIFDNWIPL [DHCR7] , thanks.
Response given: 2.92

Challenge: Next record, please: LQEVPTGLDSISHDSANCELPLLT [ETS2]
Response given: 4.71

Challenge: // next record SHQNLRVDDLSVEWDAMGGKVQDI [FSD1]
Response given: 4.49

Challenge: And for PPVTDLGELRRRPGDMKTKMELLI [CPOX] ?
Response given: 3.2

Challenge: Same question, HLTVHKRIHTGERPYMCKECGKAF [ZNF8] this time
Response given: 2.73

Challenge: Try the sequence TPLLMAARYGHLDMVEFLLEQCSA [FEM1C]
Response given: 2.28

Challenge: One more sequence: VILFSSAVYFAEADDPTSGFSSIP [KCNA3]
Response given: 3.01

Challenge: Then this sequence: LAVLGADERIFSLTRRLAHGEELR [HAGHL]
Response given: 2.82

Challenge: Please do the same for FIEIELDRQELTYQELLRVCCCEL [ANKRD40] as well.
Response given: 2.67

Challenge: Next up: TGAACRLVEAVLSGEVLNGAAVVR [HDAC6]
Response given: 2.13

Where do these numbers come from? They come from the supplement of paper PMC10567573.
